Hey, just so you know, these numbers are from paper PMC5000626.

# TARGET: mMATE1 (Mus musculus)
# Sequence (Q8K0H1 whole entry): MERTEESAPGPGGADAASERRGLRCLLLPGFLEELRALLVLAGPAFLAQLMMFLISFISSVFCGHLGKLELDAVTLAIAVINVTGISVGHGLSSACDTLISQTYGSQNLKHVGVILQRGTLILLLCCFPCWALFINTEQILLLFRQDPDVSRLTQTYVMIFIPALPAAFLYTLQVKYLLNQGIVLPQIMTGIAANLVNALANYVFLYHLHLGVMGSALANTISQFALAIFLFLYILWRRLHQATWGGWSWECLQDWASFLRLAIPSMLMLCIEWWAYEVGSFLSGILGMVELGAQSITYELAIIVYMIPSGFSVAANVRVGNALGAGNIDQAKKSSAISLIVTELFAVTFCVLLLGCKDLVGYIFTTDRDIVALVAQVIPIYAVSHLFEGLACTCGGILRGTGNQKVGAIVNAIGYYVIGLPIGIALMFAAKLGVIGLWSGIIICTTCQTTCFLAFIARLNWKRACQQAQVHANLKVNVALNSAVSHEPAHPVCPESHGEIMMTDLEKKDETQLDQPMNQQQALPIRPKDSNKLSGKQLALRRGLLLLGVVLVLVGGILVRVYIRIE
MEASURED ATTRIBUTE: IC50 (µM)
// return numeric value only (unit: µM, not printed)

Task: Checklist item: IC50 tested on mMATE1 (Mus musculus), entry Cc1nc(Nc2ncc(C(=O)Nc3c(C)cccc3Cl)s2)cc(N2CCN(CCO)CC2)n1 [Dasatinib, dasatinib] , value?
Output: 106

----------
# TARGET: hMATE2-K (Homo sapiens)
# Sequence (Q86VL8 1-566 isoform Q86VL8-3): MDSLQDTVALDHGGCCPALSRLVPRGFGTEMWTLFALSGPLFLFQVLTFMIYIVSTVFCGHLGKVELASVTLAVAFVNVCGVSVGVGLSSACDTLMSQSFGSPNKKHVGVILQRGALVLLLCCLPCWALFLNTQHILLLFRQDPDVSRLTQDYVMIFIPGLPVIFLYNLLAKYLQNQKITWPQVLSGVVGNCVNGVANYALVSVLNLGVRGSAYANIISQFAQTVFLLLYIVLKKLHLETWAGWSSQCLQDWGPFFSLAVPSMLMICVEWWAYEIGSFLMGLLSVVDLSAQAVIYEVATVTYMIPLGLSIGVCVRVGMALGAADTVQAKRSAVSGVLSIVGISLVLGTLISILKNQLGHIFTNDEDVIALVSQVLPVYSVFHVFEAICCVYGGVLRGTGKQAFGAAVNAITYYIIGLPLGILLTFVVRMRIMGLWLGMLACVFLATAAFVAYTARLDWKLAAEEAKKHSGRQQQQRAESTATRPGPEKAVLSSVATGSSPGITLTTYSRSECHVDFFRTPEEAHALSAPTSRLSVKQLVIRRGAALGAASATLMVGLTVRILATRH
pIC50: −log10 of the molar value.
MEASURED ATTRIBUTE: pIC50

Task: Write down the reported pIC50 of Cc1cn(-c2cc(NC(=O)c3ccc(C)c(Nc4nccc(-c5cccnc5)n4)c3)cc(C(F)(F)F)c2)cn1 , test system: hMATE2-K (Homo sapiens).
Output: < 4.00
